tested on: Plasmodium falciparum TM91C235; assay: In vitro antimalarial [3H]-hypoxanthine incorporation assay, TM91C235; type: cell-based; settings: Plasmodium falciparum; P. falciparum TM91C235 (multiple drug resistant isolate), 72 hours exposure
recordedEndpoint: IC50 (µg/mL)
Write it as a number; the unit µg/mL goes unstated.

Q) Could you tell me which IC50 is on file for CC[C@H]1OC(=O)[C@H](C)[C@@H](O[C@H]2C[C@@](C)(OC)[C@@H](O)[C@H](C)O2)[C@H](C)[C@@H](O[C@@H]2O[C@H](C)C[C@H](N(C)C)[C@H]2O)[C@](C)(O)C[C@@H](C)CN(CCCNC(=O)NC2CCN(C(=O)OCc3ccccc3)CC2)[C@H](C)[C@@H](O)[C@]1(C)O.O=CO [Example 91] ?
A) 0.259

Q) Now give it for C=CCNC(=S)NCCCN1C[C@H](C)C[C@@](C)(O)[C@H](O[C@@H]2O[C@H](C)C[C@H](N(C)C)[C@H]2O)[C@@H](C)[C@H](O[C@H]2C[C@@](C)(OC)[C@@H](O)[C@H](C)O2)[C@@H](C)C(=O)O[C@H](CC)[C@@](C)(O)[C@H](O)[C@H]1C [Example 111] too.
A) 0.459

Just for reference, patent US20080200404A1 is where these values come from.
